FYI, the data here is from patent US11692008B2.

Test system: HT-1080 cells
protocol-details: Ferroptosis cell viability assay (Erastin-induced, CellTiter-Glo)
Assay type: cell-based
experimental-conditions: Homo sapiens, HT-1080, 30 h, read-out: EC50, inhibition for ferroptosis in HT-1080 cell
Method: Cell Lines and Media: HT-1080 (fibrosarcoma) cells were obtained from American Type Culture Collection. Cells were grown in EMEM media, 10% Heat-Inactivated FBS, and penicillin-streptomycin mix (Invitrogen). […] Cell Viability Assay. […] Read the plate to detect Luminescent signal with EnSpire Multimode Plate Reader (PerkinElmer). […] Sample: Readout from the test compound Vehicle: Readout from the vehicle sample Background: Readout from the Erastin only treatment […]
measured-property: EC50 (nM)

>>> obs_value("CC1=C(C)C(=O)C(CCCOc2ccc(C[C@H](NC(=O)[C@@H]3CCCN3C(=O)[C@H](/C=C/[C@H](CC(C)C)NC(=O)OC(C)(C)C)Cc3ccccc3)C(=O)NC(C)C)cc2)=C(C)C1=O")
56.9
>>> obs_value("CC1=C(C)C(=O)C(CCCOC(=O)NCCC[C@H](NC(=O)[C@@H]2CCCN2C(=O)[C@H](/C=C/[C@H](CC(C)C)NC(=O)OC(C)(C)C)Cc2ccccc2)C(=O)NC2CC2)=C(C)C1=O")
149
>>> obs_value("CCOC(=O)N[C@H](/C=C/[C@H](Cc1ccccc1)C(=O)N1CCC[C@H]1C(=O)N[C@@H](CCCCC1=C(C)C(=O)C(C)=C(C)C1=O)C(=O)NC(C)C)CC(C)C")
80.5
>>> obs_value("CC1=C(C)C(=O)C(CCCOC(=O)NCCCC[C@H](NC(=O)[C@@H]2CCCN2C(=O)[C@H](/C=C/[C@H](CC(C)C)NC(=O)OC(C)(C)C)Cc2ccccc2)C(=O)NC(C)C)=CC1=O")
196

* * *

System: HT-1080 cells
protocol-details: Ferroptosis cell viability assay (Erastin-induced, CellTiter-Glo)
Format: cell-based
experimental-conditions: Homo sapiens, HT-1080, 30 h, read-out: EC50, inhibition for ferroptosis in HT-1080 cell
pEC50: −log10 of the molar value.
measured-property: pEC50

>>> obs_value("CC1=C(C)C(=O)C(CCCOC(=O)NCCC[C@H](NC(=O)[C@@H](NC(=O)[C@@H]2CCCN2C(=O)[C@H](/C=C/[C@H](CC(C)C)NC(=O)OC(C)(C)C)Cc2ccccc2)C(C)C)C(=O)NC(C)C)=C(C)C1=O")
7.33
>>> obs_value("COC1=C(OC)C(=O)C(CCCCCCCCCCOC(=O)NCCCC[C@H](NC(=O)[C@@H]2CCCN2C(=O)[C@H](/C=C/[C@H](CC(C)C)NC(=O)OC(C)(C)C)Cc2ccccc2)C(=O)NC(C)C)=C(C)C1=O")
7.46
>>> obs_value("CC1=C(C)C(=O)C(CCCOC(=O)NCCCC[C@H](NC(=O)[C@@H]2CCCN2C(=O)[C@H](/C=C/[C@H](CC(C)C)NC(=O)OCC2CC2)Cc2ccccc2)C(=O)NC(C)C)=C(C)C1=O")
7.31

* * *

Collected EC50 values appear next to each entry.
Test system: 3T3-L1 cells
protocol-details: Apoptosis assay (Caspase-Glo 3/7, Actinomycin D induced)
Type: cell-based
experimental-conditions: Mus musculus, 3T3-L1, 48 h, 100 nM Actinomycin D, read-out: EC50, inhibition for apoptosis in 3T3-L1 cell induced by Actinomycin D
measured-property: EC50 (nM)

>>> obs_value("CC1=C(C)C(=O)C(CCC(=O)NCCCC[C@H](NC(=O)[C@@H]2CCCN2C(=O)[C@H](/C=C/[C@H](CC(C)C)NC(=O)OC(C)(C)C)Cc2ccccc2)C(=O)NC(C)C)=CC1=O [I]")
1150
>>> obs_value("CC1=C(C)C(=O)C(CCCOC(=O)NCCCC[C@H](NC(=O)[C@@H]2CCCN2C(=O)[C@H](/C=C/[C@H](CC(C)C)NC(=O)OC(C)(C)C)Cc2ccccc2)C(=O)NC(C)C)=CC1=O [V]")
2740
